Recorded values, source patent US20240246946A1.

Molecular target: full length mouse TREX1 (Mus musculus)
Construct: N-terminally His-Tev tagged full length mouse TREX1; made in house; host or cells: E. coli
Sequence (Q91XB0 whole entry): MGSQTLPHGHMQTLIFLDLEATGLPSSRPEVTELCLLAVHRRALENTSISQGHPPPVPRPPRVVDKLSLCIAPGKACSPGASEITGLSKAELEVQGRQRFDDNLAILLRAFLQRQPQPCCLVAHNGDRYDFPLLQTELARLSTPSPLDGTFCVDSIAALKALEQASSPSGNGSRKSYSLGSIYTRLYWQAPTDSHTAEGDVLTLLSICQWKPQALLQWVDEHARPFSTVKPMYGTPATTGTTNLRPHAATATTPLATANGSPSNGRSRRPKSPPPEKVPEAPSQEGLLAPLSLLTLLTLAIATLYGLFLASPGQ
Assay: mTREX1 Biochemical Assay (fluorescence, dsDNA substrate degradation)
Conditions: biochemical, read-out: mTREX1 IC50
Listed next: entries and their corresponding IC50.
PROPERTY: IC50

>  <COMPOUND>
CC(c1nc(C(=O)Nc2cnoc2)c(O)c(=O)n1C)C(c1cnn(CC2COC2)c1)c1cc(F)ccc1Cl (single isomer, unassigned) [Example 94 D1E2]

>  <MEASURED_VALUE>
> 10 nM

$$$$
>  <COMPOUND>
CC(c1nc(C(=O)Nc2cnoc2)c(O)c(=O)n1C)C(c1cnccn1)c1ccccc1C#N (single isomer, unassigned) [Example 66 D2E1]

>  <MEASURED_VALUE>
> 10 nM

$$$$
>  <COMPOUND>
Cc1cnc(C(c2ccccc2C#N)C(C)c2nc(C(=O)Nc3cnoc3)c(O)c(=O)n2C)c(C)n1 (single isomer, unassigned) [Example 123 D1E1]

>  <MEASURED_VALUE>
1 to 10 nM

$$$$
>  <COMPOUND>
CC(c1nc(C(=O)Nc2cnoc2)c(O)c(=O)n1C)C(c1cnn(CCN2CCN(C(=O)OC(C)(C)C)CC2)c1)c1ccccc1C#N (single isomer, unassigned) [Example 21 D2E1]

>  <MEASURED_VALUE>
> 10 nM

$$$$
>  <COMPOUND>
CC(c1nc(C(=O)Nc2cnoc2)c(O)c(=O)n1C)C(c1cnn(CC(F)(F)F)c1)c1ccccc1C#N (single isomer, unassigned) [Example 22 D1E2]

>  <MEASURED_VALUE>
> 10 nM

$$$$
>  <COMPOUND>
Cc1cc(C(c2ccccc2C#N)C(C)c2nc(C(=O)Nc3cnoc3)c(O)c(=O)n2C)ccn1 (single isomer, unassigned) [Example 6 D1E2]

>  <MEASURED_VALUE>
> 10 nM

$$$$

###

pIC50 for assorted compounds
Target: full length mouse TREX1 (Mus musculus)
Construct: N-terminally His-Tev tagged full length mouse TREX1; made in house; host or cells: E. coli
Test: mTREX1 Biochemical Assay (fluorescence, dsDNA substrate degradation)
Settings: biochemical, read-out: mTREX1 IC50
pIC50: −log10 of the molar value.
PROPERTY: pIC50

>  <COMPOUND>
CC(c1nc(C(=O)Nc2cnoc2)c(O)c(=O)n1C)C(c1cnn(C)c1)c1ccc(Cl)cc1C#N (single isomer, unassigned) [Example 27 D1E1]

>  <MEASURED_VALUE>
> 9.00

$$$$
>  <COMPOUND>
Cc1nn(C)cc1C(c1ccc(F)cc1C#N)C(C)c1nc(C(=O)Nc2cnoc2)c(O)c(=O)n1C (single isomer, unassigned) [Example 56 D2E2]

>  <MEASURED_VALUE>
< 8.00

$$$$
>  <COMPOUND>
CC(c1nc(C(=O)Nc2cnoc2)c(O)c(=O)n1C)C(c1ccccc1Cl)c1cnn(C)c1C#N (single isomer, unassigned) [Example 96 D2E1]

>  <MEASURED_VALUE>
< 8.00

$$$$
>  <COMPOUND>
CC(c1nc(C(=O)Nc2cnoc2)c(O)c(=O)n1C)C(c1ccccc1C#N)c1nnnn1C (single isomer, unassigned) [Example 131 D2E2]

>  <MEASURED_VALUE>
< 8.00

$$$$
>  <COMPOUND>
Cc1cnc(C)c(C(c2cc(F)ccc2C#N)C(C)c2nc(C(=O)Nc3cnoc3)c(O)c(=O)n2C)n1 (single isomer, unassigned) [Example 119 D2E2]

>  <MEASURED_VALUE>
< 8.00

$$$$
>  <COMPOUND>
Cc1ncc(C(c2ccccc2Cl)C(C)c2nc(C(=O)Nc3cnoc3)c(O)c(=O)n2C)cn1 (single isomer, unassigned) [Example 44 D2E2]

>  <MEASURED_VALUE>
< 8.00

$$$$

###

Target: full length human TREX1 (Homo sapiens)
Construct: N-terminally His-Tev tagged full length human TREX1; made in house; host or cells: E. coli
Sequence (Q9NSU2 1-314): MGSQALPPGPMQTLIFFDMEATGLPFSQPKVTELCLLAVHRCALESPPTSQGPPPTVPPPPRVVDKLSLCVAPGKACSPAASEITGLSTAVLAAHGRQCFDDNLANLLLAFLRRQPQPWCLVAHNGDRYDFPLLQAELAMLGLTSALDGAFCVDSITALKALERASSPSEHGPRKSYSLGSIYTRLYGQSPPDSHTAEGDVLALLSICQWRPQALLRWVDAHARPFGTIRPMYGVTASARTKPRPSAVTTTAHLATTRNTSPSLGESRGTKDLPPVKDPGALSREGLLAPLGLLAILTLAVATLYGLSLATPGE
Test: hTREX1 Biochemical Assay (fluorescence, dsDNA substrate degradation)
Details: biochemical, read-out: hTREX1 IC50
This listing pairs molecules with measured IC50.
PROPERTY: IC50

>  <MOLECULE>
Cc1nn(C)cc1C(c1cc(F)ccc1C#N)C(c1nc(C(=O)Nc2cnoc2)c(O)c(=O)n1C)C(F)(F)F (single isomer, unassigned) [Example 42 D2E1]

>  <MEASURED_VALUE>
1 to 10 nM

$$$$
>  <MOLECULE>
CCn1cc(C(c2ccccc2C#N)C(C)c2nc(C(=O)Nc3cnoc3)c(O)c(=O)n2C)c(C)n1 (single isomer, unassigned) [Example 70 D2E2]

>  <MEASURED_VALUE>
> 10 nM

$$$$
>  <MOLECULE>
CC(c1nc(C(=O)Nc2cnoc2)c(O)c(=O)n1C)C(c1cnccn1)c1ccccc1C#N (single isomer, unassigned) [Example 66 D2E1]

>  <MEASURED_VALUE>
1 to 10 nM

$$$$
>  <MOLECULE>
CC(c1nc(C(=O)Nc2cnoc2)c(O)c(=O)n1C)C(c1cn[nH]c1)c1ccccc1C#N (single isomer, unassigned) [Example 12 D1E2]

>  <MEASURED_VALUE>
> 10 nM

$$$$
>  <MOLECULE>
CC(c1nc(C(=O)Nc2cnoc2)c(O)c(=O)n1C)C(c1ccccc1C#N)c1c(C#N)cnn1C (single isomer, unassigned) [Example 52 D2E2]

>  <MEASURED_VALUE>
> 10 nM

$$$$
>  <MOLECULE>
CC(c1nc(C(=O)Nc2cnoc2)c(O)c(=O)n1C)C(c1cnn(CC(F)F)c1)c1cc(F)ccc1C#N (single isomer, unassigned) [Example 102 D1E2]

>  <MEASURED_VALUE>
< 1 nM

$$$$
>  <MOLECULE>
Cc1nn(C)cc1C(c1cc(F)ccc1C#N)C(C)c1nc(C(=O)Nc2cnoc2)c(O)c(=O)n1C (single isomer, unassigned) [Example 57 D1E1]

>  <MEASURED_VALUE>
1 to 10 nM

$$$$
>  <MOLECULE>
CC(c1nc(C(=O)Nc2cnoc2)c(O)c(=O)n1C)C(c1cnn(C)c1)c1cc(F)c(F)cc1Cl (single isomer, unassigned) [Example 28 D1E2]

>  <MEASURED_VALUE>
> 10 nM

$$$$
>  <MOLECULE>
CC(c1nc(C(=O)Nc2cnoc2)c(O)c(=O)n1C)C(c1cnn(C(F)F)c1)c1ccccc1C#N (single isomer, unassigned) [Example 38 D2E1]

>  <MEASURED_VALUE>
> 10 nM

$$$$
>  <MOLECULE>
COCCn1cc(C(c2ccccc2C#N)C(C)c2nc(C(=O)Nc3cnoc3)c(O)c(=O)n2C)c(C)n1 (single isomer, unassigned) [Example 71 D2E1]

>  <MEASURED_VALUE>
> 10 nM

$$$$
>  <MOLECULE>
CC(c1nc(C(=O)Nc2cnoc2)c(O)c(=O)n1C)C(c1cnn(C)c1)c1ccc(F)cc1C#N (single isomer, unassigned) [Example 15 D2E2]

>  <MEASURED_VALUE>
> 10 nM

$$$$
>  <MOLECULE>
COCCn1cc(C(c2cc(F)ccc2C#N)C(C)c2nc(C(=O)Nc3cnoc3)c(O)c(=O)n2C)c(C)n1 (single isomer, unassigned) [Example 103 D2E1]

>  <MEASURED_VALUE>
1 to 10 nM

$$$$
>  <MOLECULE>
CC(c1nc(C(=O)Nc2cnoc2)c(O)c(=O)n1C)C(c1cnn(C(F)(F)F)c1)c1ccccc1C#N (single isomer, unassigned) [Example 151 D1E2]

>  <MEASURED_VALUE>
> 10 nM

$$$$
>  <MOLECULE>
Cc1ccn(C(c2ccccc2C#N)C(C)c2nc(C(=O)Nc3cnoc3)c(O)c(=O)n2C)n1 (single isomer, unassigned) [Example 132 D1E1]

>  <MEASURED_VALUE>
> 10 nM

$$$$
>  <MOLECULE>
COCCn1nc(C)c(C(c2cc(F)ccc2C#N)C(C)c2nc(C(=O)Nc3cnoc3)c(O)c(=O)n2C)c1C (single isomer, unassigned) [Example 110 D1E1]

>  <MEASURED_VALUE>
< 1 nM

$$$$
>  <MOLECULE>
CC(c1nc(C(=O)Nc2cnoc2)c(O)c(=O)n1C)C(c1cnn(C2COC2)c1)c1ccccc1C#N (single isomer, unassigned) [Example 106 D2E2]

>  <MEASURED_VALUE>
> 10 nM

$$$$
>  <MOLECULE>
COCCn1cc(C(c2ccccc2C#N)C(C)c2nc(C(=O)Nc3cnoc3)c(O)c(=O)n2C)c(C)n1 (single isomer, unassigned) [Example 71 D1E2]

>  <MEASURED_VALUE>
> 10 nM

$$$$
>  <MOLECULE>
CC(c1nc(C(=O)Nc2cnoc2)c(O)c(=O)n1C)C(c1ccccc1Cl)n1cc2ccccc2n1 (single isomer, unassigned) [Example 141 D1E1]

>  <MEASURED_VALUE>
1 to 10 nM

$$$$
>  <MOLECULE>
CCn1cc(C(c2cc(F)c(F)cc2Cl)C(C)c2nc(C(=O)Nc3cnoc3)c(O)c(=O)n2C)cn1 (single isomer, unassigned) [Example 72 D2E2]

>  <MEASURED_VALUE>
> 10 nM

$$$$
>  <MOLECULE>
COCCn1ncc(C(c2ccccc2C#N)C(C)c2nc(C(=O)Nc3cnoc3)c(O)c(=O)n2C)c1C (single isomer, unassigned) [Example 69 D2E2]

>  <MEASURED_VALUE>
1 to 10 nM

$$$$
>  <MOLECULE>
Cc1ncc(C(c2ccccc2Cl)C(C)c2nc(C(=O)Nc3cnoc3)c(O)c(=O)n2C)nc1C (single isomer, unassigned) [Example 125 D1E2]

>  <MEASURED_VALUE>
< 1 nM

$$$$
>  <MOLECULE>
Cc1cnc(C(c2ccccc2Cl)C(C)c2nc(C(=O)Nc3cnoc3)c(O)c(=O)n2C)cn1 (single isomer, unassigned) [Example 116 D1E1]

>  <MEASURED_VALUE>
> 10 nM

$$$$
>  <MOLECULE>
COCCn1ncc(C(c2ccccc2C#N)C(C)c2nc(C(=O)Nc3cnoc3)c(O)c(=O)n2C)c1C (single isomer, unassigned) [Example 69 D1E1]

>  <MEASURED_VALUE>
1 to 10 nM

$$$$
